- STUDY_TARGET: human MC3R (human, UniProt P41968 1-323)
- Sequence (P41968 whole entry): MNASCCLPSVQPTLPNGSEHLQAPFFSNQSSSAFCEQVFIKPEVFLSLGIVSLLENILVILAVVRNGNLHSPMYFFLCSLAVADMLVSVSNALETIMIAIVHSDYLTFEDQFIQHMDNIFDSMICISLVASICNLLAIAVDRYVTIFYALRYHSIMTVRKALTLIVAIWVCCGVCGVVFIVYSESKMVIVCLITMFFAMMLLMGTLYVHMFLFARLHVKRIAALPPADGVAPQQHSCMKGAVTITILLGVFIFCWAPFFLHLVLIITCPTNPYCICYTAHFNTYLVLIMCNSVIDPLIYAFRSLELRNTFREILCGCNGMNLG
- TEST: cell-based or functional assay
Non-standard residues stand in square brackets, D forms with d. PKcap1 = N-terminal cap C18 diacid-γGlu-mPEG2; Phe(4-I) = N[C@@H](Cc1ccc(I)cc1)C(=O)O; Nle = CCCC[C@H](N)C(=O)O
Label rule met when MC3R selectivity (relative to MC4R) < 50; otherwise rule not met.

MC3R selectivity (relative to MC4R) under 50? Item: H-YVE[dA]H[dF]R[dW]DRFG-OH (SMILES CC(C)[C@H](NC(=O)[C@@H](N)Cc1ccc(O)cc1)C(=O)N[C@@H](CCC(=O)O)C(=O)N[C@H](C)C(=O)N[C@@H](Cc1c[nH]cn1)C(=O)N[C@H](Cc1ccccc1)C(=O)N[C@@H](CCCNC(=N)N)C(=O)N[C@H](Cc1c[nH]c2ccccc12)C(=O)N[C@@H](CC(=O)O)C(=O)N[C@@H](CCCNC(=N)N)C(=O)N[C@@H](Cc1ccccc1)C(=O)NCC(=O)O) [CTX-1106] rule not met

Does this binder meet the criterion MC3R selectivity (relative to MC4R) < 50? Ac-[Nle][dA]HFR[dW]DAFG-OH (SMILES CCCC[C@H](NC(C)=O)C(=O)N[C@H](C)C(=O)N[C@@H](Cc1c[nH]cn1)C(=O)N[C@@H](Cc1ccccc1)C(=O)N[C@@H](CCCNC(=N)N)C(=O)N[C@H](Cc1c[nH]c2ccccc12)C(=O)N[C@@H](CC(=O)O)C(=O)N[C@@H](C)C(=O)N[C@@H](Cc1ccccc1)C(=O)NCC(=O)O) [CTX-1534] rule not met

Strictly below 50: is that where MC3R selectivity (relative to MC4R) of PKcap1-G[dY]V[Nle][dA]HFR[dW]DRFG-OH [CTX-1151] sits? rule not met

For this binder, is MC3R selectivity (relative to MC4R) lower than 50? YVXFHFRWDRFG (Nle at 3; D-Phe at 4; D-Trp at 8) [CTX-1136] rule met

Would you kindly verify if MC3R selectivity (relative to MC4R) of Ac-[Nle][dA]P[Phe(4-I)]R[dF]DRFG-OH (SMILES CCCC[C@H](NC(C)=O)C(=O)N[C@H](C)C(=O)N1CCC[C@H]1C(=O)N[C@@H](Cc1ccc(I)cc1)C(=O)N[C@@H](CCCNC(=N)N)C(=O)N[C@H](Cc1ccccc1)C(=O)N[C@@H](CC(=O)O)C(=O)N[C@@H](CCCNC(=N)N)C(=O)N[C@@H](Cc1ccccc1)C(=O)NCC(=O)O) [CTX-1506] is strictly less than 50? rule met

Confirm or reject: MC3R selectivity (relative to MC4R) of H-[dY]V[Nle][dA]HFR[dW]D-NH2 (SMILES CCCC[C@H](NC(=O)[C@@H](NC(=O)[C@H](N)Cc1ccc(O)cc1)C(C)C)C(=O)N[C@H](C)C(=O)N[C@@H](Cc1c[nH]cn1)C(=O)N[C@@H](Cc1ccccc1)C(=O)N[C@@H](CCCNC(=N)N)C(=O)N[C@H](Cc1c[nH]c2ccccc12)C(=O)N[C@@H](CC(=O)O)C(N)=O) [CTX-1142] lies strictly below 50 rule not met
